Readings of human MASP2 IC50 for the listed binders
# TARGET_DESC: Recombinant human MASP2 enzyme (fragment corresponding to amino acids 297-686, C-terminal His Tag) (human, UniProt O00187 297-686)
# Sequence (O00187 other isoform, or with tags, fused parts or gaps limits assumed): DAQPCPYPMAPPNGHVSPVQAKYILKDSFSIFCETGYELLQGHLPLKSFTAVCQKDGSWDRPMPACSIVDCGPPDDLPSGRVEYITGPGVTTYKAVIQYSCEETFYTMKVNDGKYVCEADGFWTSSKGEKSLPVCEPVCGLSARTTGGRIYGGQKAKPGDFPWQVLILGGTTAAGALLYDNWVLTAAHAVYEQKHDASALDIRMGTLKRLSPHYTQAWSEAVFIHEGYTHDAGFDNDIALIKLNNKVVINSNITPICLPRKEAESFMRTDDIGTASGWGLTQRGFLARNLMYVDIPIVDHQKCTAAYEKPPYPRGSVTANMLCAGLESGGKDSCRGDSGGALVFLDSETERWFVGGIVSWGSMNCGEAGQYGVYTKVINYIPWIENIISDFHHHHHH
# ASSAY_REMARKS: cell-based or functional assay
Bridge positions count the residues as written; N and C are the ends. Square brackets hold non-standard residues; d marks the D form. Ends that are not written are not given here. * marks the point of attachment. tBuAla = CC(C)(C)C[C@H](N)C(=O)O; NMePro = CN1CCC[C@H]1C(=O)*; Orn = NCCC[C@H](N)C(=O)O
PROPERTY_MEASURED: human MASP2 IC50

# BINDER, RESULT
data = [
    ("[NMePro]ICSRS[tBuAla]PPICIPD-NH2 (disulfide 3-11; SMILES CC[C@H](C)[C@H](NC(=O)[C@@H]1CCCN1C)C(=O)N[C@H]1CSSC[C@@H](C(=O)N[C@H](C(=O)N2CCC[C@H]2C(=O)N[C@@H](CC(=O)O)C(N)=O)[C@@H](C)CC)NC(=O)[C@H]([C@@H](C)CC)NC(=O)[C@@H]2CCCN2C(=O)[C@@H]2CCCN2C(=O)[C@H](CC(C)(C)C)NC(=O)[C@H](CO)NC(=O)[C@H](CCCNC(=N)N)NC(=O)[C@H](CO)NC1=O) [((N-Me)P)-IC+SRS-((tBu)A)-PPIC+IPD-NH2]", "260 nM"),
    ("[Orn]ICSRSLPPICI-NH2 (disulfide 3-11; N-terminus assumed; SMILES CC[C@H](C)[C@H](NC(=O)[C@@H]1CSSC[C@H](NC(=O)[C@@H](NC(=O)[C@@H](N)CCCN)[C@@H](C)CC)C(=O)N[C@@H](CO)C(=O)N[C@@H](CCCNC(=N)N)C(=O)N[C@@H](CO)C(=O)N[C@@H](CC(C)C)C(=O)N2CCC[C@H]2C(=O)N2CCC[C@H]2C(=O)N[C@@H]([C@@H](C)CC)C(=O)N1)C(N)=O) [(Orn)-IC+SRSLPPIC+I-NH2]", "190 nM"),
]
